Attribution: ChEMBL document CHEMBL1137771

# assaySummary: Metabolic stability in dog liver microsomes
# Type: ADME, Canis lupus familiaris, Microsome
# cond: read-out: Stability
measurementType: microsomal CLint (µL/min/mg)
State the answer as a number, implicitly in µL/min/mg.

For the compound "Cc1cc(Cn2c(=O)c(C3=CS(=O)(=O)c4cc(NS(C)(=O)=O)ccc4N3)c(O)c3cc(F)ccc32)ccc1F" , give its reported microsomal CLint.
24

* * *

# assaySummary: Drug concentration in rat liver at 5 mg/kg, po after 2 hrs
# Format: ADME, organism-based
# Set-up: dose 5 mg/kg, route oral
# cond: read-out: Drug uptake
measurementType: concentration at 2 h (ng/g)
Reply with just the number (in ng/g).

Give recorded concentration at 2 h. "Cc1cc(Cn2c(=O)c(C3=CS(=O)(=O)c4cc(NS(C)(=O)=O)ccc4N3)c(O)c3cc(F)ccc32)ccc1F"
151
